Origin of measurements: PubChem BioAssay (NCI)

- System: SK-MEL-5 melanoma
- assay-method-text: NCI-60 one-dose screen, 48 h (100 = growth as untreated, 0 = no growth, -100 = all killed)
- test-parameters: 10 µM unless noted
This is part of a sample that, as a whole, favours compounds with a hit. Of some 83,000 tested, about 20% had one in any assay.
outcome-measure: growth (%)
Answer in %, number only, no unit symbol.

Below, 3 compounds whose answers are already recorded.
# structure-smiles, test-system, growth / %
measured = [
    ("Cn1cc(-c2nn3cc(-c4cccnc4)nc3s2)c2cc(F)ccc21", "SK-MEL-5 melanoma", 94.3),
    ("COc1ccc(-c2cc(-c3cccc4ccccc34)n3c(n2)nc2ccccc23)cc1", "SK-MEL-5 melanoma", 30.4),
    ("Oc1ccc(-c2nnc(SCc3ccc(O)c4ncccc34)n2-c2ccccc2)cc1", "SK-MEL-5 melanoma", -44.6),
]

Now take the following compound into account.
[ask] Can you share its growth? I mean this compound: CS(=O)(=O)c1ccc(-c2nn(-c3ccccc3)cc2/C=C/C(=O)c2ccc(Br)cc2)cc1
[reply] 92.4

====

- System: LOX IMVI melanoma
- assay-method-text: NCI-60 one-dose screen, 48 h (100 = growth as untreated, 0 = no growth, -100 = all killed)
- test-parameters: 10 µM unless noted
This is part of a sample that, as a whole, favours compounds with a hit. Of some 83,000 tested, about 20% had one in any assay.
Each entry below lists one item and its recorded growth value.
Answer in %, number only, no unit symbol.

Below, 3 compounds whose answers are already recorded.
# compound, quantitative-result
data = [
    ("COc1ccc(Cn2cc3c(c2-c2cc(OC)c(OC)c(OC)c2)CCCc2cnoc2-3)cc1N", 45.1),
    ("COc1ccc(NC(=O)[C@H](C)NC(=O)OC(C)(C)C)cc1C(=O)Nc1cccc(-c2cc(=O)c3c(OC)c(OC)c(OC)cc3o2)c1", -73.7),
    ("NC(=S)N/N=C(/C=C/c1cn(-c2ccccc2)nc1-c1ccc(Cl)cc1)c1cc2ccccc2oc1=O", 36),
]

[ask] Reported growth for LOX IMVI melanoma, given Cc1ccc(NC(=O)N[C@@H](Cc2cc(F)cc(F)c2)C(=O)NC2C(=O)N3CCC[C@H]3C(=O)N3CCCC[C@H]3C(=O)N[C@@H](C)C(=O)N3C[C@H](C)C[C@H]3C(=O)O[C@H]2C)c(F)c1 (some centres not stated) ?
[reply] 25.3

[ask] Reported growth for LOX IMVI melanoma, given C/C(=C(/C)C1CC1CCN(C(=O)c1ccc([N+](=O)[O-])cc1)S(=O)(=O)c1ccc(C)cc1)C1CCCCC1 (configuration not stated) ?
[reply] 93.9

[ask] Reported growth for LOX IMVI melanoma, given COc1ccc(NC(=O)[C@H](C)N)cc1C(=O)Nc1cccc(-c2cc(=O)c3c(OC)c(OC)c(OC)cc3o2)c1 ?
[reply] 49.8

[ask] Reported growth for LOX IMVI melanoma, given CC(=O)Nc1ccc(C)c(Nc2cc(-c3ccc(-n4cccn4)cc3)[nH]n2)c1 ?
[reply] 60

[ask] Reported growth for LOX IMVI melanoma, given CCN1C(=O)N(CC)C2SC(N/N=C/c3cccs3)=NC21 (configuration not stated) ?
[reply] 8.77

[ask] Reported growth for LOX IMVI melanoma, given CC1(C)CC[C@]2(C(=O)O)CC[C@]3(C)C(=CCC4[C@@]5(C)C[C@@H](O)[C@@H]6OC(c7cccc([N+](=O)[O-])c7)OC[C@@]6(C)C5CC[C@]43C)C2C1 (some centres not stated) ?
[reply] 42.7

[ask] Reported growth for LOX IMVI melanoma, given COc1cc2oc(-c3cccc(NC(=O)c4cc(NC(=O)[C@H](C)NC(=O)OC(C)(C)C)ccc4C)c3)cc(=O)c2c(OC)c1OC ?
[reply] 53.8

[ask] Reported growth for LOX IMVI melanoma, given CNC(=O)c1cc(N2CCc3cc(NC(=O)Nc4ccc(Cl)c(Cl)c4)ccc32)ccn1 ?
[reply] 86.9

====

- System: HOP-92 NSCLC
- assay-method-text: NCI-60 one-dose screen, 48 h
- test-parameters: 10 µM unless noted
The panel holds about 83,000 compounds, 20% with a hit somewhere; the sample as a whole holds those more often. Active and inactive are the calls of the source. How the source made its calls: active means growth percent below 10; inactive means the rest.
Please reply with one of these outcomes: active, inactive

# compound, test-system, answer-label
records = [
    ("C/C=C/C=C1\\C[C@H]2CO[C@H](O2)C1=O", "HOP-92 NSCLC", "inactive"),
    ("O=C(Nc1ccc(Cl)cc1)Nc1nc2ccc([N+](=O)[O-])cc2s1", "HOP-92 NSCLC", "active"),
    ("CS(=O)(=O)c1nccc(-c2c(-c3ccc(F)c(OCCc4ccc(F)cc4)c3)nc3sccn23)n1", "HOP-92 NSCLC", "active"),
]

[ask] What outcome does the record of this test show for CCOC(=O)C1=C(C)Nc2nc3ccccc3n2C1c1ccccc1 (centres undefined) ?
[reply] inactive

[ask] What outcome does the record of this test show for Cc1nn(-c2ccccc2)c2nc(CCl)[nH]c(=O)c12 ?
[reply] inactive

[ask] What outcome does the record of this test show for CCCCCCCCNC(=O)c1ccc(Cn2c(CCCC)nc3c(N)nc4ccccc4c32)cc1 ?
[reply] inactive

====

- Test system: NCI-H460 lung
- assay-method-text: NCI-60 one-dose screen, 48 h
- test-parameters: 10 µM unless noted
This is part of a sample that, as a whole, favours compounds with a hit. Of some 83,000 tested, about 20% had one in any assay. Calls of active or inactive are those of the source. How the source made its calls: active means growth percent below 10; inactive means the rest.
Please reply with one of these outcomes: True for active, False for inactive

Example results:
# compound, test-system, answer-label
data = [
    ("C=C(C)[C@@H]1CC[C@]2(C(=O)NCCCN(CCC#N)CCC#N)CC[C@]3(C)[C@H](CC[C@@H]4[C@@]5(C)CCC(=O)C(C)(C)[C@@H]5CC[C@]43C)[C@@H]12", "NCI-H460 lung", "False"),
    ("Cc1cc(O)c2c(c1)C(=O)C(c1c(C)cc3c(c1O)C(=O)C=CC3=O)=CC2=O", "NCI-H460 lung", "False"),
    ("Cc1cn(-c2cc(NC(=O)c3cncc(C#Cc4cnc5ccc(O[C@@H]6CCOC6)nn45)c3)cc(C(F)(F)F)c2)cn1", "NCI-H460 lung", "True"),
    ("O=C1[C@@H]2Cc3c([nH]c4ccccc34)[C@H](c3c(Cl)cccc3Cl)N2C(=O)CN1C1CCN(Cc2ccccc2)CC1", "NCI-H460 lung", "True"),
    ("CN(C)C(=O)c1ccccc1-n1cnc2ccccc2c1=O", "NCI-H460 lung", "False"),
]

[ask] What outcome does the record of this test show for CCCCOc1ccc(S(=O)(=O)N2CCN(c3nccc(N4CCOCC4)n3)CC2)cc1 ?
[reply] False

[ask] What outcome does the record of this test show for Cn1cc(-c2nn3cc(-c4ccncc4)nc3s2)c2cc(Cl)ccc21 ?
[reply] False

[ask] What outcome does the record of this test show for CC(c1ccccc1)N1C(=O)/C(=C/c2csc(C#N)n2)SC1=S (stereo not drawn) ?
[reply] False

====

- Test system: LOX IMVI melanoma
- assay-method-text: NCI-60 one-dose screen, 48 h
- test-parameters: 10 µM unless noted
This is part of a sample that, as a whole, favours compounds with a hit. Of some 83,000 tested, about 20% had one in any assay. Active and inactive are the calls of the source. Rule for the calls: active = growth percent below 10; inactive = the rest.
Please reply with one of these outcomes: label 1 (active), label 0 (inactive)

Example results:
# compound, test-system, answer-label
rows = [
    ("N=c1c2cc(-c3ccccc3)oc2ncn1/N=C/c1ccccc1", "LOX IMVI melanoma", "label 0"),
    ("O=C1c2c(O)cc(O)cc2O[C@@H](c2ccc(O)cc2)[C@@H]1c1c(O)cc(O)c2c(=O)cc(-c3ccc(O)c(O)c3)oc12", "LOX IMVI melanoma", "label 0"),
    ("N#Cc1c(-c2ccccc2)cc(-c2c[nH]c3ccccc23)nc1-c1c[nH]c2ccccc12", "LOX IMVI melanoma", "label 0"),
    ("C#C[C@]1(O)CC[C@H]2[C@@H]3CC=C4c5sc(C6CC6)nc5CC[C@]4(C)[C@H]3CC[C@@]21C", "LOX IMVI melanoma", "label 0"),
    ("COc1ccc([C@@H]2[C@@H](O)C(=O)N2c2cc(OC)c(OC)c(OC)c2)cc1", "LOX IMVI melanoma", "label 0"),
    ("Cc1[nH]nc2ccc(-c3nc4cnc(N5CCN(C)CC5)cn4c3Nc3ccc(F)cc3Br)cc12", "LOX IMVI melanoma", "label 1"),
    ("Cc1cccc(NC(c2cc3cccc4ccc5cccc2c5c43)c2nnnn2C(C)(C)C)c1C (configuration not stated)", "LOX IMVI melanoma", "label 0"),
    ("CCOC(=O)C1=C(C)Nc2nnc(Nc3ccccc3)n2C1c1ccccc1 (configuration not stated)", "LOX IMVI melanoma", "label 0"),
    ("Cc1ccc(/C=C/CC(=O)Nc2ccc(C(=O)Nc3ccc(F)cc3N)nc2)cn1", "LOX IMVI melanoma", "label 0"),
    ("COc1cnc2c(c1)C(=O)c1c-2n(CCCn2ccnc2)c(=O)c2cc(OC)c(OC)cc12", "LOX IMVI melanoma", "label 1"),
]

[ask] What outcome does the record of this test show for Cn1c(SC(C(=O)Nc2ccc(F)cc2)c2ccccc2)nc2ccccc2c1=O (configuration not stated) ?
[reply] label 0

[ask] What outcome does the record of this test show for CC(c1ccccc1)N1C(=O)/C(=C/c2csc(C#N)n2)SC1=S (configuration not stated) ?
[reply] label 0

[ask] What outcome does the record of this test show for COCCC[C@H]1O[C@@](O)([C@H](C)[C@@H]2CC(OC)C(O)/C=C(C)/C=C(C)/C=C(\C)C(OC3O[C@@H](C)[C@H](O)C(O)[C@@H]3O)C(C)/C=C(C)/C=C(OC)/C=C(\C)C(=O)O2)C(OC)C(O)[C@]1(C)O[C@H]1C[C@@H](O)[C@H](O[C@H]2C[C@](C)(O)[C@H](O)C(C)O2)C(C)O1 (some centres not stated) ?
[reply] label 0
